Biological target: human HSL (Homo sapiens, UniProt Q05469)
Construct: generate a full length human HSL ORF with a 3′-His6 tag
Sequence (Q05469 whole entry): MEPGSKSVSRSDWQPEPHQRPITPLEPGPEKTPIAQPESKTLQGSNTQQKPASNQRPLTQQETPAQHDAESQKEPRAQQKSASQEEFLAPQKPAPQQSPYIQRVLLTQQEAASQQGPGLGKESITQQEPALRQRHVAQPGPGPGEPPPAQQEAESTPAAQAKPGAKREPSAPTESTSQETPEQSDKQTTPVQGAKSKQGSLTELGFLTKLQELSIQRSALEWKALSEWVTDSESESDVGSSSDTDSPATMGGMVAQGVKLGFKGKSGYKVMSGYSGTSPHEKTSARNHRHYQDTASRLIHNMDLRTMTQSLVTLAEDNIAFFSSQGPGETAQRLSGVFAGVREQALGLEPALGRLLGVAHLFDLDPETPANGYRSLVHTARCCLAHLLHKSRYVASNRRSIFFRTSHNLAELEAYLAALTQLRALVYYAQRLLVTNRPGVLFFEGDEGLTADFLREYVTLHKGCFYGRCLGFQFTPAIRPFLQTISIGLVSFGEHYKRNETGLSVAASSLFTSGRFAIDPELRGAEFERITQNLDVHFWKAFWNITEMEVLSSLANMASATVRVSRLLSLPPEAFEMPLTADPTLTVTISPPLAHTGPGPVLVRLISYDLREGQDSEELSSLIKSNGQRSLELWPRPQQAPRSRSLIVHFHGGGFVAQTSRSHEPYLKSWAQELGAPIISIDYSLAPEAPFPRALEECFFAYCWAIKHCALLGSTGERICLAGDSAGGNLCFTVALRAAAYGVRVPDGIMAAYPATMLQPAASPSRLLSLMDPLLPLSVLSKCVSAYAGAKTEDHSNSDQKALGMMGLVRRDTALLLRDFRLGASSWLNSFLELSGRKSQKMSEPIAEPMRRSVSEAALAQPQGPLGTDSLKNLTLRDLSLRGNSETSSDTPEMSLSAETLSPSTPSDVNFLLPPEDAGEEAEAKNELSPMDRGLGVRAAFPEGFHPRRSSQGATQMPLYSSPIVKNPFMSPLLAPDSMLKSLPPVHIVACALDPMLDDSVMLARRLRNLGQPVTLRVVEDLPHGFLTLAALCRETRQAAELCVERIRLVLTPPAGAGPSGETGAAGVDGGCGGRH
Test: Human Hormone-Sensitive Lipase (HSL) enzyme inhibition assay (colorimetric, DMPT substrate)
Settings: human full length HSL-His6, 2,3-dimercapto-1-propanol tributyrate substrate, 37° C. 20 minutes, absorbance at 405 nm; read-out: HSL hum IC50
readout: IC50 (nM)

>>> df
                                   compound  readout  observed_value
0  O=C1N(c2ccc(OCC(F)(F)F)cc2)CC[C@]12CC[C@@](O)(COCC1CC1)CC2 [Example 257]     IC50              10
1  CC(O)C1CCC2(CC1)CCN(c1ccc(C(C)(C)C)cc1)C2=O (stereo not drawn) [Example 358]     IC50              50
2  COC[C@]1(O)CC[C@]2(CCN(c3ccc(O[C@@H](C)C(F)(F)F)cc3)C2=O)CC1 [Example 146]     IC50              20
3  O=C1N(c2ccc(OCC(F)(F)F)cc2)CC[C@]12CC[C@](O)(COCC1CC1)CC2 [Example 256]     IC50             690
4  O=C1N(c2ccc(OCC(F)(F)F)cc2)CC[C@]12CC[C@](O)(COCC(F)(F)F)CC2 [Example 232]     IC50             290
5  O=C1N(c2ccc(OC(F)(F)F)cc2)CC[C@]12CC[C@H](Sc1ccccc1)CC2 [Example 52]     IC50            2270
6  CCCO[C@H]1CC[C@]2(CCN(c3ccc(OC(F)(F)F)cc3)C2=O)CC1 [Example 42]     IC50             320
7  C[C@@H](Oc1ccc(N2CC[C@]3(CC[C@](O)(COCC(F)F)CC3)C2=O)cn1)C(F)(F)F [Example 313]     IC50             280

A. CCCC[C@]1(O)CC[C@]2(CCN(c3ccc(OCCOC)cc3)C2=O)CC1 [Example 96]
B. COC[C@]1(O)CC[C@@]2(CCN(c3ccc(OC(F)(F)F)cc3)C2=O)CC1 [Example 115]
C. CC(C)SC[C@]1(O)CC[C@]2(CCN(c3ccc(O[C@H](C)C(F)(F)F)nc3)C2=O)CC1 [Example 321]
List items by IC50 in falling order. Provide the ranking by listing each label in its place in the requested order.
B, A, C
(B: 680 nM, A: 60 nM, C: 10 nM)
